Attribution: patent US6416735B1

- assayed_system: UniProtKB Q05941
- Sequence (Q05941 23-502): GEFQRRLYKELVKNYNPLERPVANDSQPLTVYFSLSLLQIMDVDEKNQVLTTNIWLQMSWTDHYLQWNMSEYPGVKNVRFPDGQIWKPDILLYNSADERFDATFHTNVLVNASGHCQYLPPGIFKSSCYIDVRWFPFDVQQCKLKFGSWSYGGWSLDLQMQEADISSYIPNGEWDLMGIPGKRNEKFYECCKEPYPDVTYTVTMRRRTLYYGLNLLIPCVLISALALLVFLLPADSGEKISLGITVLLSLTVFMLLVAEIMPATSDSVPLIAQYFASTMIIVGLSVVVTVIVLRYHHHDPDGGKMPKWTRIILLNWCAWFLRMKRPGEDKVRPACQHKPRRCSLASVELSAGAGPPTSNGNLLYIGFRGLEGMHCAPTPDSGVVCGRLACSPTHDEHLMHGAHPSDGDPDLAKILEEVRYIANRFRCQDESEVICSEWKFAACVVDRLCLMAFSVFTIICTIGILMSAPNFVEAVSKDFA
- assay_remarks: biochemical
- Assay type: binding
- applied_conditions: read-out: KI, inhibition of [^125I]Iodo-MLA binding
readout_name: Ki (µM)
Give just the numeric value; µM need not be written.

Q: Entry `C(=Cc1ccccc1)C=C1CCCN=C1c1cccnc1` has what Ki?
A: 0.0153
